ASSAY: gradient 5% acetonitrile 3 min, to 50% in 2 min, to 85% in 15 min, held 3 min, 100 µL/min
TEST_CONDITIONS: column: Zorbax Extend-C18 2.1 x 50 mm; eluents: water / acetonitrile, 0.1% formic acid
Outcome: Met for RP-LC retention time of at least 800 s; Not met for anything lower.

# COMPOUND, ASSIGNED_LABEL
data = [
    ("Clc1ccc(-c2nnc(Cc3nc(-c4cccs4)no3)o2)cc1", "Met"),
    ("O=C(Cn1ncc2c(N3CCN(c4ccccn4)CC3)ncnc21)Nc1ccc(F)c(Cl)c1", "Not met"),
    ("CC1(C)CC(=O)c2cn(-c3ccccc3)c(=O)c(C(=O)NC3CC3)c2C1", "Met"),
    ("CCOc1nc2ccccc2nc1N1CCCC(C(=O)Nc2ccccc2CC)C1 (centres undefined)", "Met"),
    ("O=C(CCC[C@@H]1[C@H]2CCCN3CCC[C@@H](CN1C(=O)c1cccnc1)[C@@H]23)N1CCN(c2ncccn2)CC1", "Not met"),
    ("CC(C)NC(=O)C1CCCN(c2nc3ncn(CC(=O)NC4CCCC4)c(=O)c3s2)C1 (centres undefined)", "Met"),
    ("CCN1CCN(c2cc(C(=O)O)c3cc(NS(=O)(=O)c4ccc(C)cc4C)ccc3n2)CC1", "Not met"),
    ("O=C(Cn1cc(-c2nnc(-c3ccco3)o2)c2ccccc21)N1CCCC1", "Not met"),
    ("Cc1cc(=O)n2c3ccccc3n(CC(O)CN3CCN(c4ccccc4)CC3)c2c1C#N (centres undefined)", "Not met"),
    ("COc1cc(C2CC(=O)N(CC(=O)NCC3CCCO3)c3ccccc3S2)cc(OC)c1OC (centres undefined)", "Not met"),
    ("COc1ccc(CNC(=O)Cn2cnc3c(sc4nc(-c5ccccc5)ccc43)c2=O)cc1", "Met"),
    ("O=C(Nc1cccc(Cl)c1)Nc1ccc2nncn2c1", "Not met"),
    ("CN(Cc1nc2cc(C(=O)N3CCCC3)ccc2n1C)C(=O)Nc1ccc(F)cc1F", "Not met"),
    ("COc1ccc2[nH]c(=O)c(CCC(=O)N3CCN(c4ccccn4)CC3)cc2c1", "Not met"),
    ("COc1ccccc1-c1noc(C2CCCN2C(=O)Nc2ccc(F)cc2F)n1 (centres undefined)", "Met"),
    ("CC(C)NC(=O)N1CCC2(CC1)NCCc1c2[nH]c2ccccc12", "Not met"),
]
